system.under.test: T1, human PCSK9 (proprotein convertase subtilisin kexin type 9) (human, UniProt Q8NBP7 31-692)
T1 construct: Directly immobilized (SPR ProteOn), biotinylated (BLI), or in solution, depending on the assay; also called hPCSK9
experiment.notes: BLI, biotinylated hPCSK9 on sensor tips
Experimental: Tips were then immersed into a buffer-only well for observation of Adnectin dissociation. Experiments were performed in a temperature controlled environment at either 25 or 37° C., and the oscillation speed was set at 1500 rpm. Binding interaction analysis was performed using proprietary software from Fortebio (Fortebio Data Analysis Software version 6.3.0.36). Global fits were performed for all samples, using a 1:1 binding model. […]
measurement.kind: koff (s⁻¹)

Consider the worked cases shown below.
* 2382H09 (designed binder, Anti-PCSK9 Adnectin, His6-tagged) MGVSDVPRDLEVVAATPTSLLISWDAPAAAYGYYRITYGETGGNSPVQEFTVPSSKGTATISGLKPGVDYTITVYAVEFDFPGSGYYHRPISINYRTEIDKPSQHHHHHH | 0.000483
* 2381F11 (designed binder, Anti-PCSK9 Adnectin, His6-tagged) MGVSDVPRDLEVVAATPTSLLISWDAPADGGYGYYRITYGETGGNSPVQEFTVPVSKSTATISGLKPGVDYTITVYAVEYTFPGAGYYHRPISINYRTEIDKPSQHHHHHH | 0.000522

A. 2382D03 (designed binder, Anti-PCSK9 Adnectin, His6-tagged) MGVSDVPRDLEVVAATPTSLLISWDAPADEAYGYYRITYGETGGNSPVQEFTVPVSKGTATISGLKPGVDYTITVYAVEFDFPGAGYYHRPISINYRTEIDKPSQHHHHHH
B. 2011H05 (designed binder, Anti-PCSK9 Adnectin, His6-tagged; also called ATI001091) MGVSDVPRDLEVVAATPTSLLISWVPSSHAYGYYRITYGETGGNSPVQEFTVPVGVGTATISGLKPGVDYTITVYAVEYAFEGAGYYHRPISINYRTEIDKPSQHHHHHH
Lower value for measured koff? Options: A , B To answer, give the label that identifies your chosen option.
B
(B: 8.2e-05 s⁻¹, A: 0.000663 s⁻¹)
